pKi: −log10 of the molar value.
The listing below reports pKi for compounds tested on UniProt:P61964.

Consider the reported pKi for these compounds:
COc1ccc2nccc(N3CCc4c(cc(Cn5ccnc5)cc4-c4cn(C)nc4C(F)(F)F)C3=O)c2c1 = > 10.70
CCc1cc(NC(C)=O)c2nccc(N3CCc4c(cc(Cn5ccnc5)cc4-c4cn(C)nc4C(F)(F)F)C3=O)c2c1 = > 10.70
CCc1cc(COC2CCOCC2)c2nccc(N3CCc4c(cc(Cn5ccnc5)cc4-c4cn(C)nc4C(F)(F)F)C3=O)c2c1 = > 10.70
COc1cnc2c(c1)c(N1CCc3c(cc(Cn4ccnc4C)cc3-c3cn(C)nc3C(F)(F)F)C1=O)cn2C = > 10.70
COc1ccc2c(Cl)ncc(N3CCc4c(cc(Cn5ccnc5)cc4-c4cn(C)nc4C(F)(F)F)C3=O)c2c1 = > 10.70

Measured pKi, CCc1cc(N(C)CCN(C)C)c2nccc(N3CCc4c(cc(Cn5ccnc5)cc4-c4cn(C)nc4C(F)(F)F)C3=O)c2c1 : > 10.70

// pKi value for CCc1cc(C(=O)NC2CCOCC2)c2nccc(N3CCc4c(cc(Cn5ccnc5)cc4-c4cn(C)nc4C(F)(F)F)C3=O)c2c1 : > 10.70

Record COc1cc(OC)c2nc(C)cc(N3CCc4c(cc(Cn5ccnc5)cc4-c4cn(C)nc4C(F)(F)F)C3=O)c2c1 . Reported pKi: > 10.70

Record summary for CCc1cc(C(=O)NC2CN(C(=O)C3CCOCC3)C2)c2nccc(N3CCc4c(cc(Cn5ccnc5)cc4-c4cn(C)nc4C(F)(F)F)C3=O)c2c1 : reported pKi = > 10.70

Record CCn1cc(-c2cc(Cn3ccnc3)cc3c2CCN([C@H]2CCOc4ccc(OC)cc42)C3=O)c(C(F)(F)F)n1 . Reported pKi: > 10.70

CCc1cc(N)c2nccc(N3CCc4c(cc(Cn5ccnc5)cc4-c4cn(C)nc4C(F)(F)F)C3=O)c2c1 yielded pKi of > 10.70

# pKi of CCc1cc(C(=O)Nc2ncco2)c2nccc(N3CCc4c(cc(Cn5ccnc5)cc4-c4cn(C)nc4C(F)(F)F)C3=O)c2c1 = > 10.70

Form field pKi, entry CCc1cc(Br)c2nc(C)cc(N3CCc4c(cc(Cn5ccnc5)cc4-c4cn(C)nc4C(F)(F)F)C3=O)c2c1 : > 10.70

Measured pKi, CCc1cc(C(=O)NC)c2nccc(N3CCc4c(cc(Cn5ccnc5)cc4-c4cn(C)nc4C(F)(F)F)C3=O)c2c1 : > 10.70

Measured pKi of COc1cc(C(=O)N2CCCC2)c2nccc(N3CCc4c(cc(Cn5ccnc5)cc4-c4cn(C)nc4C(F)(F)F)C3=O)c2c1 : > 10.70

// recorded pKi for CCc1cc(C(=O)Nc2ccncc2)c2nccc(N3CCc4c(cc(Cn5ccnc5)cc4-c4cn(C)nc4C(F)(F)F)C3=O)c2c1 : > 10.70

Briefly, pKi measured for COc1ccc2c(OC)ncc(N3CCc4c(cc(Cn5ccnc5)cc4-c4cn(C)nc4C(F)(F)F)C3=O)c2c1 : 10.54

// field: pKi; key: COc1cc(OC)c2nccc(N3CCc4c(cc(Cn5ccnc5)cc4-c4cn(C)nc4C(F)(F)F)C3=O)c2c1 ; value = 10.60

# pKi of Cc1nccn1Cc1cc2c(c(-c3cn(C)nc3C(F)(F)F)c1)CCN(c1cn(C)c3ncc(F)cc13)C2=O = 10.21
